# System: SNU719
# Test Name: Cell viability drug screen, 12-point dose-response AUC
# Format: cell-based, human
# Condition Set: SNU719 cells; 72 hours
# Description: An FDA-approved small-molecule pharmacological compound (#L1300) and an anticancer compound for research (#L2000) were purchased from Selecckchem and a 10 mM solution was prepared in DMSO. […] Cells cultured for cell-based drug assay were inoculated into a 96-well white optical plate (Corning) at 5×10^3 cells per well. […] The final drug concentration in the 5 ns range and the DMSO specification control (0.5%) were calculated. […]
Where a name gives a salt, the structure may show the parent alone.
// values below are reported Average Area Under the Viability Curve (AUC), AUC norm value
Metric: Average Area Under the Viability Curve (AUC), AUC norm value

# Molecule, Readout Number
rows = [
    ("CO[C@@H](C(=O)N1Cc2n[nH]c(NC(=O)c3ccc(N4CCN(C)CC4)cc3)c2C1)c1ccccc1", 3.935),
    ("CC(C)[C@H](C(=O)Nc1ccc(C(=O)NO)cc1)c1ccccc1", 2.169),
    ("Cc1ccc([N+](=O)[O-])cc1S(=O)(=O)N(C)/N=C/c1cnc2ccc(Br)cn12", 5.726),
    ("COC(=O)Nc1nc2ccc(C(=O)c3cccs3)cc2[nH]1", 4.976),
    ("NC(=O)Nc1cc(-c2cccc(F)c2)sc1C(=O)N[C@H]1CCCNC1", 3.771),
    ("CC[C@@]1(O)C(=O)OCc2c1cc1n(c2=O)Cc2cc3c(CN(C)C)c(O)ccc3nc2-1 [Topotecan HCI, Topotecan HCl]", 3.069),
    ("CC[C@@]1(O)C(=O)OCc2c1cc1n(c2=O)Cc2cc3ccccc3nc2-1", 3.079),
    ("COc1cc([C@@H]2c3cc4c(cc3[C@@H](O[C@@H]3O[C@@H]5CO[C@@H](c6cccs6)O[C@H]5[C@H](O)[C@H]3O)[C@H]3COC(=O)[C@H]23)OCO4)cc(OC)c1O [Teniposide (Vumon), Teniposide]", 2.899),
    ("Nc1nc(F)nc2c1ncn2[C@@H]1O[C@H](COP(=O)(O)O)[C@@H](O)[C@@H]1O [Fludarabine Phosphate (Fludara), Fludarabine Phosphate]", 2.046),
    ("CC(C)n1nc(-c2ccc3oc(N)nc3c2)c2c(N)ncnc21", 3.8255),
    ("COC1=CC(c2cc3ccccc3[nH]2)=N/C1=C\\c1[nH]c(C)cc1C [Obatoclax mesylate (GX15-070), Obatoclax mesylate]", 2.585),
    ("O=C(/C=C/c1cccc(S(=O)(=O)Nc2ccccc2)c1)NO", 2.329),
    ("c1ccc2c(-c3cnn4cc(-c5ccc(N6CCNCC6)cc5)cnc34)ccnc2c1", 0.6043),
    ("O=C(Nc1ccc([N+](=O)[O-])cc1Cl)c1cc(Cl)ccc1O [Niclosamide (Niclocide), Niclosamide]", 2.503),
    ("CCCCCCCCCCCCCCCC[n+]1ccccc1 [Cetylpyridinium Chloride]", 1.718),
]

###

// values below are reported area under the viability curve (AUC), normalized
# System: SNU1
# Test Name: Cell viability drug screen, 12-point dose-response AUC
# Type: cell-based, human
# Condition Set: SNU1 cells; 72 hours; 12-point dose-response
Where a name gives a salt, the structure may show the parent alone.
Metric: area under the viability curve (AUC), normalized

# Compound, Subject Of Test, Result
records = [
    ("CCCOc1ccc2nc(NC(=O)OC)[nH]c2c1", "SNU1", "−1.007"),
    ("CC(/C=C/C(=O)NO)=C\\[C@@H](C)C(=O)c1ccc(N(C)C)cc1", "SNU1", "−0.9946"),
    ("Cc1ccc(C(=O)N(CCCN)[C@@H](c2oc3cc(Cl)ccc3c(=O)c2Cc2ccccc2)C(C)C)cc1", "SNU1", "−0.9587"),
    ("C#Cc1cccc(Nc2ncnc3cc(OC)c(OCCCCCCC(=O)NO)cc23)c1", "SNU1", 0),
    ("Nc1cc(C(F)(F)F)c(-c2cc(N3CCOCC3)nc(N3CCOCC3)n2)cn1", "SNU1", 0.2556),
    ("COC(=O)Nc1nc2ccc(Sc3ccccc3)cc2[nH]1", "SNU1", 0.1629),
    ("C/C(=C\\c1csc(C)n1)[C@@H]1C[C@@H]2O[C@@H]2CCC[C@H](C)[C@H](O)[C@@H](C)C(=O)C(C)(C)[C@@H](O)CC(=O)O1", "SNU1", "−1.75"),
    ("CC(C)C[C@H](NC(=O)[C@H](Cc1ccccc1)NC(=O)c1cnccn1)B(O)O", "SNU1", "−0.3028"),
    ("Cc1cnc(NC(=O)Nc2cc(Br)c(C)cc2OC[C@@H]2CNCCO2)cn1", "SNU1", "−0.3399"),
    ("CC(C)C[C@H](NC(=O)CNC(=O)c1cc(Cl)ccc1Cl)B(O)O", "SNU1", "−0.5037"),
    ("CN(C)c1ccc(C(=C2C=CC(=[N+](C)C)C=C2)c2ccc(N(C)C)cc2)cc1", "SNU1", "−0.5355"),
    ("CC(=O)O[C@H]1C(=O)[C@@]2(C)[C@H]([C@H](OC(=O)c3ccccc3)[C@]3(O)C[C@H](OC(=O)[C@H](O)[C@@H](NC(=O)c4ccccc4)c4ccccc4)C(C)=C1C3(C)C)[C@]1(OC(C)=O)CO[C@@H]1C[C@@H]2O", "SNU1", "−1.778"),
    ("COc1ncc(-c2ccc3nccc(-c4ccnnc4)c3c2)cc1NS(=O)(=O)c1ccc(F)cc1F", "SNU1", "−0.6492"),
    ("CC(C)[C@]12O[C@H]1[C@@H]1O[C@]13[C@]1(O[C@H]1C[C@H]1C4=C(CC[C@@]13C)C(=O)OC4)[C@@H]2O [Triptolide]", "SNU1", "−0.1207"),
    ("O=C1c2c(O)ccc(O)c2C(=O)c2c(NCCNCCO)ccc(NCCNCCO)c21 [Mitoxantrone Hydrochloride]", "SNU1", 0),
    ("C[C@@H]1O[C@@H](O[C@H]2C[C@@H](O)[C@]3(CO)[C@H]4[C@H](O)C[C@]5(C)[C@@H](C6=CC(=O)OC6)CC[C@]5(O)[C@@H]4CC[C@]3(O)C2)[C@H](O)[C@H](O)[C@H]1O", "SNU1", "−0.4741"),
    ("CCCCc1nc2cc(/C=C/C(=O)NO)ccc2n1CCN(CC)CC", "SNU1", "−1.4"),
    ("COCCn1c2c([n+](Cc3cnccn3)c1C)C(=O)c1ccccc1C2=O", "SNU1", 1.212),
    ("Nc1ccc(-c2ccc3ncc4ccc(=O)n(-c5cccc(C(F)(F)F)c5)c4c3c2)cn1", "SNU1", 1.392),
]
